target: ABHD6 (Mus musculus, UniProt Q8R2Y0); construct: Brain; from tissue; host or cells: mouse brain proteome; test: In vitro competitive activity-based protein profiling, mouse brain proteome (ABHD6); assay type: biochemical; conditions: mouse brain proteome; concentration not given (μM)
Sequence (Q8R2Y0 whole entry): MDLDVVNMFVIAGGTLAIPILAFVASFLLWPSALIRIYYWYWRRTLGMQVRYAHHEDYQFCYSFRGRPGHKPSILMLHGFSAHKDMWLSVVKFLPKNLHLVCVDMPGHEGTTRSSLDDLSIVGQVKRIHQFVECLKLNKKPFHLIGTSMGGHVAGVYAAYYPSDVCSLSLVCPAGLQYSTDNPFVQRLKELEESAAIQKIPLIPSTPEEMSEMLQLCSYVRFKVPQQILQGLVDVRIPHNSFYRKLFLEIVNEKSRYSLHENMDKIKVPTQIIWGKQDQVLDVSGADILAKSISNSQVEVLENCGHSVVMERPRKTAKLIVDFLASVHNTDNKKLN
parameter-measured: % Inh ABHD6 Brain (Mouse, μM)

1) O=C(O)CN1CC2CC1CN2c1cc(CN2CCCC23CCN(C(=O)OC(C(F)(F)F)C(F)(F)F)CC3)cc(C(F)(F)F)c1 (stereo not drawn)    # (# is ≤25%)
2) CCN1CC2(CCN(c3cc(Cl)ccc3CN3CCN(C(=O)OC(C(F)(F)F)C(F)(F)F)CC3)C2)C1    # (# is ≤25%)

###

Target: MAGL (Homo sapiens, UniProt Q99685)
Construct: Proteomes (human prefrontal cortex or cell membrane fractions); from tissue
Test: In vitro competitive activity-based protein profiling (FP-Rh or HT-01 probe, gel-based)
Format: biochemical
Conditions: prefrontal cortex (PFC) proteome, concentration not given (μM)
Procedure: In Vitro Competitive Activity-Based Protein Profiling. Proteomes (human prefrontal cortex or cell membrane fractions) (50 μL, 1.0 mg/mL total protein concentration) were preincubated with varying concentrations of inhibitors at 37° C. After 30 min, FP-Rh or HT-01 (1.0 μL, 50 μM in DMSO) was added and the mixture was incubated for another 30 min at room temperature. Reactions were quenched with SDS loading buffer (15 μL-4×) and run on SDS-PAGE.
parameter-measured: % Inh MGLL PFC (Human, μM)

1. O=C(O)CN1CC2CC1CN2c1cc(CN2CCCC23CCN(C(=O)OC(C(F)(F)F)C(F)(F)F)CC3)cc(C(F)(F)F)c1 (stereo not drawn)    ### (### is ≥75%)
2. O=C(O)CN1CC2CC1CN2c1cc(C(F)(F)F)ccc1CN1CC2(CCN(C(=O)OC(C(F)(F)F)C(F)(F)F)CC2)C1 (stereo not drawn)    ### (### is ≥75%)

###

biological target: ABHD6 (Mus musculus); construct: Brain; from tissue; host or cells: mouse brain proteome; test: In vitro competitive activity-based protein profiling, mouse brain proteome (ABHD6); type: biochemical; conditions: mouse brain proteome; concentration not given (μM)
parameter-measured: % Inh ABHD6 Brain (Mouse, μM)

1) O=C(OC(C(F)(F)F)C(F)(F)F)N1CCC2(CC1)CCN(C(=O)c1cc(Cl)cc(C(F)(F)F)c1)C2    ### (### is ≥75%)
2) O=C(O)C1CCN(Cc2cc(Cl)cc(C(=O)N3CCCC34CCN(C(=O)OC(C(F)(F)F)C(F)(F)F)CC4)c2)CC1    # (# is ≤25%)
3) Cc1cc(-c2ccccc2)ccc1CN1CCC2(CC1)CN(C(=O)OC(C(F)(F)F)C(F)(F)F)C2    ### (### is ≥75%)
4) O=C(O)[C@@H]1CCCN(c2cc(C(F)(F)F)ccc2CN2CC3(CCN(C(=O)OC(C(F)(F)F)C(F)(F)F)CC3)C2)C1    # (# is ≤25%)
5) O=C(O)[C@@H]1CCCN1C1CCN(c2cc(C(F)(F)F)ccc2CN2CCCC23CCN(C(=O)OC(C(F)(F)F)C(F)(F)F)CC3)CC1    # (# is ≤25%)

###

target: ABHD6 (Mus musculus); construct: Brain; from tissue; host or cells: mouse brain proteome; assay: In vitro competitive activity-based protein profiling, mouse brain proteome (ABHD6); assay type: biochemical; details: mouse brain proteome; concentration not given (μM)
parameter-measured: % Inh ABHD6 Brain (Mouse, μM)

1) O=C(O)[C@H]1CCCN(c2cc(CN3CC4(CCN(C(=O)OC(C(F)(F)F)C(F)(F)F)CC4)C3)cc(C(F)(F)F)c2)C1    ### (### is ≥75%)
2) O=C(OC(C(F)(F)F)C(F)(F)F)N1CCC2(CCN(Cc3ccc(C(F)(F)F)cc3N3CC4COCC4C3)CC2)C1 (stereo not shown)    # (# is ≤25%)
3) CN(Cc1cc(N2CCCC2)cc(C(F)(F)F)c1)C1(C)CCN(C(=O)OC(C(F)(F)F)C(F)(F)F)CC1    # (# is ≤25%)
4) O=C(O)CN1CC2CN(c3cc(C(F)(F)F)ccc3CN3CCCC34CCN(C(=O)OC(C(F)(F)F)C(F)(F)F)CC4)CC2C1 (stereo not shown)    # (# is ≤25%)
5) O=C(O)CN1CC2CC1CN2c1cc(C(F)(F)F)ccc1CN1CC2(CCN(C(=O)OC(C(F)(F)F)C(F)(F)F)CC2)C1 (stereo not shown)    ### (### is ≥75%)
6) CCN1CCN(c2cccc(C(F)(F)F)c2CN2CC3(CCN(C(=O)OC(C(F)(F)F)C(F)(F)F)CC3)C2)CC1    # (# is ≤25%)

###

Some molecules, each annotated with its measured IC50.
Target: MAGL (Homo sapiens, UniProt Q99685)
Construct: Proteomes (human prefrontal cortex or cell membrane fractions); from tissue
Sequence (Q99685 1-303): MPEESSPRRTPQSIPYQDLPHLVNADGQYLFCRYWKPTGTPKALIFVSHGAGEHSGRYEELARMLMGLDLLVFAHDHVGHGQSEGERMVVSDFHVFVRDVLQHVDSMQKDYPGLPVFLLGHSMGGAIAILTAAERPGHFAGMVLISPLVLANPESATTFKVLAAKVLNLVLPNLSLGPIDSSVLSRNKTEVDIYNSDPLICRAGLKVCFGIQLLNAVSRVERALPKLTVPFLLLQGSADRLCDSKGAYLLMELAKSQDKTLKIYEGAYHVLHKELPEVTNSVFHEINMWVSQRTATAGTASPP
Assay: In vitro competitive activity-based protein profiling (FP-Rh or HT-01 probe, gel-based)
Type: biochemical
Conditions: PC3 cell proteome, read-out: IC50 MGLL PC3 (Human)
parameter-measured: IC50

1) CN(Cc1ccc(C(F)(F)F)cc1N1CCC[C@H]1C(=O)O)C1(C)CCN(C(=O)OC(C(F)(F)F)C(F)(F)F)CC1 [Example 132]    100 to 1000 nM
2) CN(Cc1ccc(C(F)(F)F)cc1N1CCC(N2CCC[C@@H]2C(=O)O)CC1)C1(C)CCN(C(=O)OC(C(F)(F)F)C(F)(F)F)CC1 [Example 162]    < 100 nM
3) CN(Cc1ccc(C(F)(F)F)cc1N1CCC(N2CCC[C@H]2C(=O)O)CC1)C1(C)CCN(C(=O)OC(C(F)(F)F)C(F)(F)F)CC1 [Example 161]    < 100 nM
4) O=C(O)[C@@H]1CCCN1C1CCN(c2cc(C(F)(F)F)ccc2CN2CCCC23CCN(C(=O)OC(C(F)(F)F)C(F)(F)F)CC3)CC1 [Example 164]    < 100 nM
5) O=C(O)[C@H]1CCCN1C1CCN(c2cc(C(F)(F)F)ccc2CN2CCCC23CCN(C(=O)OC(C(F)(F)F)C(F)(F)F)CC3)CC1 [Example 160]    < 100 nM
6) CN(Cc1ccc(C(F)(F)F)cc1N1CCC(N2CCC[C@H]2C(=O)O)CC1)C1(C)CCN(C(=O)OC(C(F)(F)F)C(F)(F)F)CC1 [Example 163]    < 100 nM

###

Molecular target: MGLL (Mus musculus, UniProt O35678)
Construct: Brain; from tissue; host or cells: mouse brain proteome
Sequence (O35678 1-303): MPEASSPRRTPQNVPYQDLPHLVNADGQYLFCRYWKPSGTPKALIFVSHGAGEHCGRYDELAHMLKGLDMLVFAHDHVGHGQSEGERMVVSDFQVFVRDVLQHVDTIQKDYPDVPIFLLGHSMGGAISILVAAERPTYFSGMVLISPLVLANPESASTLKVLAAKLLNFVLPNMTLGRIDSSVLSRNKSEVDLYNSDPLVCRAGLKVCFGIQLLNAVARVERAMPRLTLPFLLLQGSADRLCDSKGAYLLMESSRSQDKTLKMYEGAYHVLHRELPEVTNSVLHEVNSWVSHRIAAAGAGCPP
Assay: In vitro competitive activity-based protein profiling, mouse brain proteome (MGLL)
Assay type: biochemical
Conditions: concentration not given (μM)
parameter-measured: % Inh MGLL Brain (Mouse, μM)

1) O=C(O)CN1CCC2(CC1)CN(c1cc(C(F)(F)F)ccc1CN1CCCC13CCN(C(=O)OC(C(F)(F)F)C(F)(F)F)CC3)C2 [Example 156]    ### (### is ≥75%)
2) O=C(OC(C(F)(F)F)C(F)(F)F)N1CCC2(CCCN2Cc2cc(Cl)cc(C3(C(=O)O)CCCC3)c2)CC1 [Example 134]    ### (### is ≥75%)

###

target: ABHD6 (Mus musculus, UniProt Q8R2Y0); construct: Brain; from tissue; host or cells: mouse brain proteome; assay: In vitro competitive activity-based protein profiling, mouse brain proteome (ABHD6); format: biochemical; conditions: mouse brain proteome; concentration not given (μM)
parameter-measured: % Inh ABHD6 Brain (Mouse, μM)

1) CS(=O)(=O)N1CC2(CCN(c3cc(C(F)(F)F)ccc3CN3CCN(C(=O)OC(C(F)(F)F)C(F)(F)F)CC3)CC2)C1    ### (### is ≥75%)
2) O=C(OC(C(F)(F)F)C(F)(F)F)N1CCC2(CC1)CN(Cc1ccc(CN3CCOCC3)cc1)C2    ### (### is ≥75%)
3) O=C(OC(C(F)(F)F)C(F)(F)F)N1CCC2(CC1)CN(Cc1ccc(C(F)(F)F)cc1N1CCOCC1)C2    ### (### is ≥75%)
